For each of the binders below, state its EC50, receptor activation (SRE-Luc assay).
Molecular target: T1, human galanin receptor 2 (hGalR2) (human, UniProt O43603 1-387)
T1 sequence (looked up): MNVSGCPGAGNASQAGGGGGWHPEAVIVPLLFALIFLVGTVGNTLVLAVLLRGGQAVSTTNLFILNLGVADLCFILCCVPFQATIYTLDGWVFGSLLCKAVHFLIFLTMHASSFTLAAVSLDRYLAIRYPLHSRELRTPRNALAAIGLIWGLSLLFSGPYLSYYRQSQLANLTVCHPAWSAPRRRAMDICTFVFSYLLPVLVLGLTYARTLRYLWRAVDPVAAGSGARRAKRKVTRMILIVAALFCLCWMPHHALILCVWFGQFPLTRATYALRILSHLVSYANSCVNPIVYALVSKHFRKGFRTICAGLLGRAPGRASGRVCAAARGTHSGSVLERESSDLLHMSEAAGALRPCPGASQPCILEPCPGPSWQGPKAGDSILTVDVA
Assay: cell-based or functional assay
Positions of bridges follow the written chain, without caps; N, C: chain ends. No end group written: not given here.
Just the number in nM, nothing appended.

Prompt: // returns reported EC50, receptor activation (SRE-Luc assay) for input GWTLNSAGYLLGPHAV-NH2 [human galanin (1-16), hGAL (1-16)]
Completion: 220

Prompt: // returns reported EC50, receptor activation (SRE-Luc assay) for input NWTCQAMLYLKGAQ-NH2 [hSPX (C4)]
Completion: 470

Prompt: // returns reported EC50, receptor activation (SRE-Luc assay) for input NWTCQAMLYLKGCQ-NH2 (disulfide 4-13; N-terminus assumed; SMILES CSCC[C@@H]1NC(=O)[C@H](C)NC(=O)[C@H](CCC(N)=O)NC(=O)[C@@H](NC(=O)[C@@H](NC(=O)[C@H](Cc2c[nH]c3ccccc23)NC(=O)[C@@H](N)CC(N)=O)[C@@H](C)O)CSSC[C@@H](C(=O)N[C@@H](CCC(N)=O)C(N)=O)NC(=O)CNC(=O)[C@H](CCCCN)NC(=O)[C@H](CC(C)C)NC(=O)[C@H](Cc2ccc(O)cc2)NC(=O)[C@H](CC(C)C)NC1=O) [LH102]
Completion: 1430

Prompt: // returns reported EC50, receptor activation (SRE-Luc assay) for input NWTPQAMLYLKGCQ-NH2 [hSPX (C13)]
Completion: 370
